Catalogue of inhibition at 50 µM values
measuredTarget: PLpro of SARS-CoV-2 (Severe acute respiratory syndrome coronavirus 2)
experimentalProtocol: Enzyme activity test in vitro: inhibition of PLpro at fixed concentration 50 μM (RLRGG-AMC substrate)
Assay type: biochemical
condition: read-out: Inhibition rate at 50 μM (%)
// note: answer is a bare numeric in %

Previously resolved entries follow.
- compound: "O=C(O)c1cccc(Nc2c(-c3ccc(F)cc3)nc3cnccn23)c1 [P19477]"
  measurementName: "inhibition at 50 µM"
  assayResult: 5.91
- compound: "O=C(O)c1cccc(Nc2c(-c3cccc(Cl)c3)nc3cnccn23)c1 [P19457]"
  measurementName: "inhibition at 50 µM"
  assayResult: 39.7
- compound: "CCc1cccc(C)c1Nc1c(-c2ccc(OC)c(OC)c2)nc2cnccn12 [P19513]"
  measurementName: "inhibition at 50 µM"
  assayResult: 38.8
- compound: "COc1ccc(-c2nc3cnccn3c2Nc2ccc(C(=O)NCc3ccco3)cc2)cc1OC [P22480]"
  measurementName: "inhibition at 50 µM"
  assayResult: 40.6

Now consider a different compound.
INPUT: Using the record for CN(C)c1ccc(-c2nc3cnccn3c2Nc2cccc(C(=O)O)c2)cc1 [P19447] , report its inhibition at 50 µM.
OUTPUT: 42.1
